Cited source for all entries: the supplement of paper PMC10338343

- Test system: MIWI (PIWIL1) piRISC loaded with L1MC piRNA (30 nt);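 further: 1 nM active piRISC with 0.1 nM target library at 33 °C single turnover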
- measurement_notes: pre-steady-state target cleavage rate (min^-1); higher = faster piRNA-guided slicing of the target
- study_conditions: guide: L1MC piRNA 5'p-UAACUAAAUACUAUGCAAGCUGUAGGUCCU; auxiliary factor: none (no GTSF1)
The full ranking holds about 8,200 sequences; the median of “pre-steady-state target cleavage rate” is about 0.024, and the highest 2% start at about 1.3. The list comes from a sample in which the highest values are over-represented; it also holds close analogues and randomly drawn sequences.
So basically: pre-steady-state target cleavage rate at 0.05 or higher? That is rule met. Lower than 0.05? That is rule not met.

Example entries and their recorded answers appear below.
construct_sequence | group_label
UCGACCUAUAGCUUGCAUAGUAUUUAGUUA | rule met
AGGACCUAGAGCUUGCAAAGUAUUUAGUUA | rule not met
UCCUCCUCAGCUUGCAUAGUAUUUAGUUA | rule not met
UCCACCUAUCAGCUUGCAUAGUAUUUAGUUA | rule met

Query: Item UGGACCAUCAGCUUGCAUAGUAUUUAGUUA with pre-steady-state target cleavage rate of 0.05 or above?
Response: rule met

Query: Item AGGACCUAUCAGCUUGCAUAGUAUUUAGUUA with pre-steady-state target cleavage rate of 0.05 or above?
Response: rule met

Query: Item UGGACCUAUCAGCUUGCAUAGUAUUUAGUUA with pre-steady-state target cleavage rate of 0.05 or above?
Response: rule met

Query: Item UCCACGAUCAGCUUGCAUAGUAUUUAGUUA with pre-steady-state target cleavage rate of 0.05 or above?
Response: rule met

Query: Item UGGACCAUCAGCUUGCAUAGUAUUUAGUAA with pre-steady-state target cleavage rate of 0.05 or above?
Response: rule met

Query: Item UCGACCUAUCAGCUUGCAUAGUAUUUAGUUA with pre-steady-state target cleavage rate of 0.05 or above?
Response: rule met

Query: Item UCCUGGAUGAGCUUGCAUAGUUUUAAGUUA with pre-steady-state target cleavage rate of 0.05 or above?
Response: rule not met

Query: Item UCCACGUACAGCUAGCAUAGUAUUUAGUUA with pre-steady-state target cleavage rate of 0.05 or above?
Response: rule not met

* * *

- Test system: MIWI (PIWIL1) piRISC loaded with L1MC piRNA (30 nt);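 further: 1 nM active piRISC with 0.1 nM target library at 33 °C single turnover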
- measurement_notes: pre-steady-state target cleavage rate (min^-1); higher = faster piRNA-guided slicing of the target
- study_conditions: guide: L1MC piRNA 5'p-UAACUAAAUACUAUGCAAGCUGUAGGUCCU; auxiliary factor: none (no GTSF1)
Over roughly 8,200 sequences, “pre-steady-state target cleavage rate” has its median near 0.024; the highest 2% begin near 1.3. This excerpt belongs to a sample that is enriched for the highest values.
result_type: pre-steady-state target cleavage rate
Respond using a number only.

Query: I am curious: what pre-steady-state target cleavage rate value has been reported for UCCACGUACAGCUUGGAUAGUAUUUAGUUA ?
Response: 0.0509

Query: I am curious: what pre-steady-state target cleavage rate value has been reported for UCCUCCUACAGCUUGCAUAAUAUUUAGUUA ?
Response: 0.0234

Query: I am curious: what pre-steady-state target cleavage rate value has been reported for UGGACGUACAGCUUGGAUAGUAUUUAGUUA ?
Response: 0.0597

* * *

- Test system: MIWI (PIWIL1) piRISC loaded with L1MC piRNA (30 nt);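 further: 1 nM active piRISC with 0.1 nM target library at 33 °C single turnover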
- measurement_notes: pre-steady-state target cleavage rate (min^-1); MIWI and MILI are mouse PIWI proteins and EfPiwi is from a freshwater sponge; tags in brackets are library labels; higher = faster piRNA-guided slicing of the target;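 further: 1 nM active piRISC with 0.1 nM target library at 33 °C single turnover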
- study_conditions: guide: L1MC piRNA 5'p-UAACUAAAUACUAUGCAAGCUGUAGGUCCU; auxiliary factor: none (no GTSF1)
The full ranking holds about 8,200 sequences; the median of “pre-steady-state target cleavage rate” is about 0.024, and the highest 2% start at about 1.3. The entries come from a sample that favours the highest values as a whole.
Dear colleague, classification is by pre-steady-state target cleavage rate, with ranges listed here: bottom = under 0.03, middle = from 0.03 up to 0.06, top = 0.06 and over

Example entries and their recorded answers appear below.
construct_sequence | target_or_system | group_label
UGGACCUACAGGUUGCAAAGUAUUUAGUUA | MIWI (PIWIL1) piRISC loaded with L1MC piRNA (30 nt) | bottom
UCCUCCUACAGCUUGCAUAGUAUUUACUUA | MIWI (PIWIL1) piRISC loaded with L1MC piRNA (30 nt) | middle
UCCUCCUACAGGUUGCAAAGUAUUUAGUUA | MIWI (PIWIL1) piRISC loaded with L1MC piRNA (30 nt) | bottom
ACGACCAACAGCUUGCAUAGUAUUUAGUUA | MIWI (PIWIL1) piRISC loaded with L1MC piRNA (30 nt) | top
UCCUGGUACAGCAUGCAUAGUAUUUAGUAA | MIWI (PIWIL1) piRISC loaded with L1MC piRNA (30 nt) | bottom
UGGACCUACAGCUUGCAUAGUAUUUAGUGA | MIWI (PIWIL1) piRISC loaded with L1MC piRNA (30 nt) | middle
UCCUGGAACUCGUUGCAUAGUAUUUAGUAA | MIWI (PIWIL1) piRISC loaded with L1MC piRNA (30 nt) | bottom
UGGUCCUACAGCAUGCAUAGUAUUUAGUUA | MIWI (PIWIL1) piRISC loaded with L1MC piRNA (30 nt) | top

Then there is this sequence:
Query: Categorize the following entry: AGGACCUACAGCAUGCAUAGUAUUUAGUUA
Response: top
